Test system: Escherichia coli
Experiment: Antibacterial activity against Escherichia coli 12140 infected in sc dosed mouse assessed as host protection administered at 1 and 5 hrs post-infection
Assay type: functional
Settings: Escherichia coli, 12140, sc; read-out: PD50
Please provide measured ED50 for the entries that follow.

q: Given the entry CCCCS(=O)(=O)CC(=O)N[C@@H]1C(=O)N2C(C(=O)[O-])=C(CSc3nnnn3C)CS[C@H]12.[Na+] , what ED50 was observed with Escherichia coli?
a: 21 mg/kg

q: Given the entry CCS(=O)(=O)CC(=O)N[C@@H]1C(=O)N2C(C(=O)[O-])=C(CSc3nnnn3C)CS[C@H]12.[Na+] , what ED50 was observed with Escherichia coli?
a: 7 mg/kg

q: Given the entry Cn1nnnc1SCC1=C(C(=O)[O-])N2C(=O)[C@@H](NC(=O)CS(N)(=O)=O)[C@H]2SC1.[Na+] , what ED50 was observed with Escherichia coli?
a: 38 mg/kg

q: Given the entry CC(C(=O)N[C@@H]1C(=O)N2C(C(=O)[O-])=C(CSc3nnnn3C)CS[C@H]12)S(C)(=O)=O.[Na+] (stereo not given in full) , what ED50 was observed with Escherichia coli?
a: 50 mg/kg

q: Given the entry CC(=O)OCC1=C(C(=O)O)N2C(=O)[C@@H](NC(=O)Cc3cccs3)[C@H]2SC1 [CEPHALOTHIN] , what ED50 was observed with Escherichia coli?
a: 50 mg/kg

q: Given the entry Cc1nnc(SCC2=C(C(=O)O)N3C(=O)[C@@H](NC(=O)Cn4cnnn4)[C@H]3SC2)s1 [CEFAZOLIN] , what ED50 was observed with Escherichia coli?
a: 6 mg/kg

q: Given the entry Cn1nnnc1SCC1=C(C(=O)O)N2C(=O)[C@@H](NC(=O)CS(=O)(=O)c3ccccc3)[C@H]2SC1 , what ED50 was observed with Escherichia coli?
a: 25 mg/kg

q: Given the entry CC(=O)OCC1=C(C(=O)O)N2C(=O)[C@@H](NC(=O)CS(=O)(=O)C(F)(F)F)[C@H]2SC1 , what ED50 was observed with Escherichia coli?
a: > 50 mg/kg

q: Given the entry Cn1cnnc1SCC1=C(C(=O)[O-])N2C(=O)[C@@H](NC(=O)CS(C)(=O)=O)[C@H]2SC1.[Na+] , what ED50 was observed with Escherichia coli?
a: 22 mg/kg

q: Given the entry CCCCS(=O)(=O)CC(=O)N[C@@H]1C(=O)N2C(C(=O)O)=C(COC(C)=O)CS[C@H]12 , what ED50 was observed with Escherichia coli?
a: 180 mg/kg
